- assay-text: chemical genetic growth profiling, strain panel (AID 1159580);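 also: tested at 20 µM; growth read once vehicle control cultures reached saturation at 30 °C; 1 = growth at the plate median or of vehicle wells; lower values mean less growth of the strain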
- condition-context: S. cerevisiae deletion strains, growth OD, locus YOR083W, strain WHI5, stronger effect = lower value
Screen size: about 5,500 compounds; about 2,000 (36%) were called active. Roughly 18% stayed inconclusive and do not appear here. The list shows a part of the results.
value-kind: normalized growth

Below are worked cases with known answers.
Any idea what its normalized growth is? The compound is CCOC(=O)c1oc2c(OC)c(O)cc(O)c2c(=O)c1-c1cc(OC)c(OC)c(OC)c1
0.965 (inactive)

Next: CN1C(CC(=O)c2ccccc2)CCCC1CC(O)c1ccccc1 (stereo not drawn)
1.01 (inactive)

Read the next record carefully.
Entry COC(C)(C)CCC[C@H](C)C/C=C/C(C)=C/C(=O)OC(C)C : reported normalized growth = ?
1.01 (inactive)

----------
- assay-text: chemical genetic growth profiling, strain panel (AID 1159580);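 also: tested at 20 µM; growth read once vehicle control cultures reached saturation at 30 °C; 1 = growth at the plate median or of vehicle wells; lower values mean less growth of the strain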
- condition-context: S. cerevisiae deletion strains, growth OD, locus YPR111W, strain DBF20, stronger effect = lower value
Out of some 5,500 compounds screened, about 2,000 (36%) were called active. About 18% were inconclusive and are not listed. The list shows a part of the results.
normalized growth for assorted compounds
Just the number.

Please review the following examples before continuing.
I have this compound here, Cc1ccc(S(=O)(=O)CCSC2=CC(=O)CC(C)(C)S2)cc1 , and I need its recorded normalized growth.
0.999

Cool, now O=C(NC(=S)Nc1cccc(C(F)(F)F)c1)c1ccc2nonc2c1
0.936

Check CC(=O)c1sc(SCCS(=O)(=O)c2ccc(C)cc2)c2c1CC(C)(C)CC2=O too.
0.963

Attention now turns to another entry.
Using the record for O=C(NCCSCc1cccc(C(F)(F)F)c1)c1ccc(Cl)cc1 , report its normalized growth.
0.93

----------
Let's look at some compounds and their measured normalized growth.
- assay-text: chemical genetic growth profiling, strain panel (AID 1159580);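 also: tested at 20 µM; growth read once vehicle control cultures reached saturation at 30 °C; 1 = growth at the plate median or of vehicle wells; lower values mean less growth of the strain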
- condition-context: S. cerevisiae deletion strains, growth OD, locus YHR087W, strain rtc3, stronger effect = lower value
Among all 5,500 compounds or so, about 2,000 (36%) were called active. Inconclusive results (about 18%) are left out. This is one part of the list.
Number, no unit, nothing else.

Quick check: normalized growth of CCOc1ccc(/C=C(\C)[N+](=O)[O-])cc1OC ?
0.401

Repeat with COc1ccc(CCNC(=S)Nc2cccc(C(F)(F)F)c2)cc1OC
1.03

Also, COC(=O)c1ccc(-c2ccc(Cl)cc2)s1 please.
0.909

// query: NC(N)=NC(N)=Nc1cc(C(F)(F)F)cc(C(F)(F)F)c1
0.99

Now give it for CCSc1nnc(N)s1 too.
1.01

Then O=C(Nc1ccccc1F)C(Cl)Cl ?
0.981

Another: CC(=O)N/C(=C/c1ccc2c(c1)OCO2)C(=O)O
1

Also NC(=O)c1ccccc1N1CCCCC1 ?
1.05

----------
- assay-text: chemical genetic growth profiling, strain panel (AID 1159580);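 also: tested at 20 µM; growth read once vehicle control cultures reached saturation at 30 °C; 1 = growth at the plate median or of vehicle wells; lower values mean less growth of the strain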
- condition-context: S. cerevisiae deletion strains, growth OD, locus YER002W, strain NOP16, stronger effect = lower value
Among all 5,500 compounds or so, about 2,000 (36%) were called active. About 18% were inconclusive and are not listed. Some of the results follow.
Measured normalized growth by item
I'd appreciate a reply containing only the number, no unit.

Consider the following illustrative entries.
# normalized growth lookup, item O=[N+]([O-])c1ccc2nc(N3CCNCC3)ccc2c1
1.01

C[C@@]1(C2CCCC2)Cc2cc(OCC(=O)O)c(Cl)c(Cl)c2C1=O , same question.
1

Now this one: CN(CCOc1ccc(C[C@H](Nc2ccccc2C(=O)c2ccccc2)C(=O)O)cc1)c1ccccn1
1

Repeat for the following molecule: CN(C(=O)CCCOc1ccc2[nH]c(=O)ccc2c1)C1CCCCC1
0.989

Here is the next molecule: CC1(C)CCC2=C(O1)c1ccccc1C(=O)C2=O
1

Try this molecule next: CN(C)CCOC(C)(c1ccccc1)c1ccccn1 (stereo not drawn)
1

Another: COc1cc2c(c(OC)c1OC)-c1ccc(OC)c(=O)cc1C(NC(C)=O)CC2 (stereo not drawn)
1.01

Okay, next one:
Using the record for CCCCCCCC/C=C\CCCCCCCC(=O)NCCO , report its normalized growth.
1.02
